FYI, the data here is from paper PMC9416111.

# Test system: P. aeruginosa ATCC 27853
# measurement_notes: Antibacterial MIC, broth microdilution (EUCAST)
# Type: cell-based, Pseudomonas aeruginosa
# assay_setup: Pseudomonas aeruginosa, ATCC27853; 24 h, Mueller-Hinton broth
parameter_measured: MIC

Some entries whose results are on file:
- molecule: "Cc1cc(C)nc(SS[C@H]2C[C@H]3C[C@@H]([C@@H]2CO)C3(C)C)n1"
  MIC: "1020 µg/mL"
- molecule: "CC1(C)[C@H]2CC[C@@H](CSSc3nc4ccccc4s3)[C@@H]1C2"
  MIC: "64 µg/mL"
- molecule: "CC1(C)[C@H]2C[C@H](O)[C@@H](CSSc3nc4ccccc4s3)[C@@H]1C2"
  MIC: "1020 µg/mL"
- molecule: "CC(C)[C@@H]1CC[C@@H](C)C[C@@H]1SSc1nc2ccccc2s1"
  MIC: "16 µg/mL"
- molecule: "COC(=O)c1cccnc1SSC[C@@H]1[C@@H](O)C[C@H]2C[C@@H]1C2(C)C"
  MIC: "> 1020 µg/mL"
- molecule: "COC(=O)c1cccnc1SS[C@H]1C[C@H]2C[C@@H]([C@@H]1CO)C2(C)C"
  MIC: "1020 µg/mL"
- molecule: "CC1(C)[C@H]2C[C@H](SSc3nc4ccccc4s3)[C@@H](CO)[C@@H]1C2"
  MIC: "64 µg/mL"
- molecule: "Cc1cc(C)nc(SSC[C@@H]2[C@@H](O)C[C@H]3C[C@@H]2C3(C)C)n1"
  MIC: "> 1020 µg/mL"

Problem: Could you share which MIC value was measured for "CC1(C)[C@H]2C[C@H](SSc3ncccc3C(=O)O)[C@@H](CO)[C@@H]1C2" ?
Result: 1020 µg/mL

Problem: Could you tell me which MIC is on file for NCC[C@H](O)C(=O)N[C@@H]1C[C@H](N)[C@@H](O[C@H]2O[C@H](CN)[C@@H](O)[C@H](O)[C@H]2O)[C@H](O)[C@H]1O[C@H]1O[C@H](CO)[C@@H](O)[C@H](N)[C@H]1O [Amikacin, reference compound] ?
Result: 4 µg/mL

Problem: Bench note: what MIC did "CC1(C)[C@H]2CC[C@@H](CSSc3ncccc3C(=O)O)[C@@H]1C2" show?
Result: 1020 µg/mL

Problem: What value of measured MIC is listed for "CC(C)[C@@H]1CC[C@@H](C)C[C@@H]1SSc1ncccc1C(=O)O" ?
Result: 1020 µg/mL

Problem: Report MIC for "COC(=O)c1cccnc1SSC[C@@H]1CC[C@H]2C[C@@H]1C2(C)C" please.
Result: 1020 µg/mL

Problem: So what's the measured MIC for this one? "Cc1cc(C)nc(SS[C@H]2C[C@H](C)CC[C@H]2C(C)C)n1"
Result: 32 µg/mL

Problem: For "CC1(C)[C@H]2C[C@H](O)[C@@H](CSSc3ncccc3C(=O)O)[C@@H]1C2" , what is its reported MIC?
Result: 1020 µg/mL

Problem: Value lookup for MIC; key = "Cc1cc(C)nc(SSC[C@@H]2CC[C@H]3C[C@@H]2C3(C)C)n1"
Result: 32 µg/mL

Problem: Fill in: MIC of "COC(=O)c1cccnc1SS[C@H]1C[C@H](C)CC[C@H]1C(C)C" is ___
Result: 32 µg/mL

====

# measurement_notes: in vitro
# assay_setup: dog
parameter_measured: CC50

- molecule: "COC(=O)c1cccnc1SS[C@H]1C[C@H]2C[C@@H]([C@@H]1CO)C2(C)C [Compound 3c]"
  CC50: "> 283 µM"
- molecule: "CC1(C)[C@H]2CC[C@@H](CSSc3ncccc3C(=O)O)[C@@H]1C2 [Compound 2d]"
  CC50: "60 µM"

Problem: Using the record for CC1(C)[C@H]2C[C@H](O)[C@@H](CSSc3nc4ccccc4s3)[C@@H]1C2 [Compound 4a] , report its CC50.
Result: 68 µM

Problem: Which value of CC50 has been reported for COC(=O)c1cccnc1SS[C@H]1C[C@H](C)CC[C@H]1C(C)C [Compound 1c] in the records?
Result: 31 µM

Problem: Field request: CC50 | item: CC(C)[C@@H]1CC[C@@H](C)C[C@@H]1SSc1ncccc1C(=O)O [Compound 1d]
Result: 38 µM

Problem: Need CC50 of CC(C)[C@@H]1CC[C@@H](C)C[C@@H]1SSc1nc2ccccc2s1 [Compound 1a] , thanks.
Result: 36 µM

Problem: Field request: CC50 | item: CC1(C)[C@H]2C[C@H](SSc3ncccc3C(=O)O)[C@@H](CO)[C@@H]1C2 [Compound 3d]
Result: 285 µM

Problem: // returns reported CC50 for input Cc1cc(C)nc(SS[C@H]2C[C@H]3C[C@@H]([C@@H]2CO)C3(C)C)n1 [Compound 3b]
Result: 83 µM

Problem: // CC50 lookup, key: Cc1cc(C)nc(SS[C@H]2C[C@H](C)CC[C@H]2C(C)C)n1 [Compound 1b]
Result: 29 µM

====

# measurement_notes: Cytotoxicity, MTT on EBL cells
# assay_setup: bovine, EBL cells (embryonic bovine lung)
Reported CC50 at 24 h values are given for each entry in this list.
The figure you give is taken to be in µg/mL; do not add the unit.

Below are worked cases with known answers.
- molecule: "Cc1cc(C)nc(SS[C@H]2C[C@H]3C[C@@H]([C@@H]2CO)C3(C)C)n1 [Compound 3b]"
  observed: 8.2
- molecule: "Cc1cc(C)nc(SSC[C@@H]2CC[C@H]3C[C@@H]2C3(C)C)n1 [Compound 2b]"
  observed: 13.6
- molecule: "CC1(C)[C@H]2CC[C@@H](CSSc3nc4ccccc4s3)[C@@H]1C2 [Compound 2a]"
  observed: 104
- molecule: "CC(C)[C@@H]1CC[C@@H](C)C[C@@H]1SSc1nc2ccccc2s1 [Compound 1a]"
  observed: 11.7
- molecule: "COC(=O)c1cccnc1SS[C@H]1C[C@H]2C[C@@H]([C@@H]1CO)C2(C)C [Compound 3c]"
  observed: 8.1

Problem: For CC1(C)[C@H]2CC[C@@H](CSSc3ncccc3C(=O)O)[C@@H]1C2 [Compound 2d] , what is its reported CC50 at 24 h?
Result: 18.1

Problem: Requested read-out: CC50 at 24 h. Entry: CC(C)[C@@H]1CC[C@@H](C)C[C@@H]1SSc1ncccc1C(=O)O [Compound 1d]
Result: 47.8

Problem: Dear colleague, I am looking for the recorded CC50 at 24 h of the following molecule: COC(=O)c1cccnc1SS[C@H]1C[C@H](C)CC[C@H]1C(C)C [Compound 1c]
Result: 18.3

Problem: May I ask what CC50 at 24 h has been recorded for CC1(C)[C@H]2C[C@H](SSc3nc4ccccc4s3)[C@@H](CO)[C@@H]1C2 [Compound 3a] ?
Result: 7.1

Problem: Query: CC50 at 24 h; subject: CC1(C)[C@H]2C[C@H](SSc3ncccc3C(=O)O)[C@@H](CO)[C@@H]1C2 [Compound 3d]
Result: 118

Problem: // CC50 at 24 h lookup, key: Cc1cc(C)nc(SS[C@H]2C[C@H](C)CC[C@H]2C(C)C)n1 [Compound 1b]
Result: 14

Problem: Look up CC50 at 24 h: COC(=O)c1cccnc1SSC[C@@H]1CC[C@H]2C[C@@H]1C2(C)C [Compound 2c]
Result: 123

Problem: For CC1(C)[C@H]2C[C@H](O)[C@@H](CSSc3ncccc3C(=O)O)[C@@H]1C2 [Compound 4d] , what is its reported CC50 at 24 h?
Result: 11.1

====

# measurement_notes: in vitro
# assay_setup: dog
parameter_measured: CC50 (µM)
Your answer should be a plain number; it is taken to be in µM.

- compound: "CC(N)C12CC3CC(CC(C3)C1)C2 (centres unmarked) [Rimantadine, reference compound]"
  display_unit: "µM"
  CC50: 367
- compound: "Cc1cc(C)nc(SSC[C@@H]2[C@@H](O)C[C@H]3C[C@@H]2C3(C)C)n1 [Compound 4b]"
  display_unit: "µM"
  CC50: 34
- compound: "Cc1cc(C)nc(SSC[C@@H]2CC[C@H]3C[C@@H]2C3(C)C)n1 [Compound 2b]"
  display_unit: "µM"
  CC50: 35
- compound: "CC1(C)[C@H]2C[C@H](SSc3nc4ccccc4s3)[C@@H](CO)[C@@H]1C2 [Compound 3a]"
  display_unit: "µM"
  CC50: 30

Problem: Bench note: what CC50 did CC1(C)[C@H]2CC[C@@H](CSSc3nc4ccccc4s3)[C@@H]1C2 [Compound 2a] show?
Result: 99

Problem: Quick check: CC50 of CC1(C)[C@H]2C[C@H](O)[C@@H](CSSc3ncccc3C(=O)O)[C@@H]1C2 [Compound 4d] ?
Result: 178

Problem: Please look up its CC50: COC(=O)c1cccnc1SSC[C@@H]1CC[C@H]2C[C@@H]1C2(C)C [Compound 2c]
Result: 104

Problem: Report CC50 for COC(=O)c1cccnc1SSC[C@@H]1[C@@H](O)C[C@H]2C[C@@H]1C2(C)C [Compound 4c] please.
Result: 40
